- ASSAY_NOTES: Critical micelle concentration by fluorescent staining with diphenylhexatriene (DPH)
- Format: physicochemical
- CONDITION_DESCRIPTION: aqueous solution
RESULT_TYPE: CMC (wt %)

1) CCCCCCCCCCCOCC(CO[C@@H]1OC(CO)[C@@H](O)C(O)C1O)(CO[C@@H]1OC(CO)[C@@H](O)C(O)C1O)CSCC(COCCCCCCCCCCC)(CO[C@@H]1OC(CO)[C@@H](O)C(O)C1O)CO[C@@H]1OC(CO)[C@@H](O)C(O)C1O (some centres unmarked) [TMG-T11] : ~0.0025 wt %
2) CCCCCCCCCCCCCCC(CCCC(CCCCCCCCCCCCCC)(CO[C@@H]1OC(CO)[C@@H](O)C(O)C1O)CO[C@@H]1OC(CO)[C@@H](O)C(O)C1O)(CO[C@@H]1OC(CO)[C@@H](O)C(O)C1O)CO[C@@H]1OC(CO)[C@@H](O)C(O)C1O (some centres unmarked) [TMG-A14] : ~0.0005 wt %
